Target: Pyroglutamylated RF-amide peptide receptor (Homo sapiens, UniProt Q96P65)
Sequence (Q96P65 whole entry): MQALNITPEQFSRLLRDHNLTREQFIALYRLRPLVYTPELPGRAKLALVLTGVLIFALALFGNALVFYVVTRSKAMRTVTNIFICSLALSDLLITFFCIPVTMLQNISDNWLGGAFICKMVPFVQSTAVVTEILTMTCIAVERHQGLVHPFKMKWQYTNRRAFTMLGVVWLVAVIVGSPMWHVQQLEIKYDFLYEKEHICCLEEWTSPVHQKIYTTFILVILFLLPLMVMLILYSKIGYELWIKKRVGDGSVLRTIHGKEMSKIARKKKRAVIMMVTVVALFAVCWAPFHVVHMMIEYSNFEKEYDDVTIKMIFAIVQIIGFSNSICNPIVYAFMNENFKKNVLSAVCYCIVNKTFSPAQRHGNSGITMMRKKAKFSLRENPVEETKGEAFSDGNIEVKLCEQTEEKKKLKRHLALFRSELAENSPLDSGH
Test: Agonist activity at human GPR103 expressed in CHO cells co-expressing Galpha16 assessed as increase in intracellular calcium level measured for 2 mins by fluorimetry
Numbered stars: 1 amine (or outer) side, 2 acyl side, 3 side chain; on linkers, the order of the positions; unused ones are H or OH. Square brackets hold non-standard residues; d marks the D form. Peptide text beside a SMILES is read from it. * marks the point of attachment. Acetyl(2-(piperazin-1-yl)) = O=C(CN1CCNCC1)*; Hydrazinoacetyl = O=C(CNN[*:1])[*:2]; X4 = CCCN(CC(=O)[*:2])N[*:1]; X6 = O=C(CN(CCO)N[*:1])[*:2]; X8 = CN(CC(=O)[*:2])N[*:1]
measure_name: pEC50
Numbers only, as −log10 of the molar value.

{"compound": "CCCN(CC(=O)N[C@@H](Cc1ccccc1)C(=O)N[C@@H](CCCNC(=N)N)C(=O)N[C@@H](Cc1ccccc1)C(N)=O)NC(=O)[C@H](Cc1ccccc1)NC(=O)CN1CCNCC1 ({Acetyl(2-(piperazin-1-yl))}-F[X4]FRF-NH2)", "value_observed": 6.79}
{"compound": "N=C(N)NCCC[C@H](NC(=O)[C@H](Cc1ccccc1)NC(=O)[C@H](CO)NC(=O)[C@H](Cc1ccccc1)NC(=O)CNC(=O)CNN)C(=O)N[C@@H](Cc1ccccc1)C(N)=O (Hydrazinoacetyl-GFSFRF-NH2)", "value_observed": 6.37}
{"compound": "N=C(N)NCCC[C@H](NC(=O)[C@H](Cc1ccccc1)NC(=O)CN(CCO)NC(=O)[C@H](Cc1ccccc1)NC(=O)CNC(=O)CN)C(=O)N[C@@H](Cc1ccccc1)C(N)=O (H-GGF[X6]FRF-NH2)", "value_observed": 5.96}
{"compound": "N=C(N)NCCC[C@H](NC(=O)[C@H](Cc1ccccc1)NC(=O)[C@H](CO)NC(=O)[C@H](Cc1ccccc1)NC(=O)CNNC(=O)CN)C(=O)N[C@@H](Cc1ccccc1)C(N)=O (H-G[Hydrazinoacetyl]FSFRF-NH2)", "value_observed": 6.87}

// next item, pEC50 requested
So what pEC50 did CN(CC(=O)N[C@@H](Cc1ccccc1)C(=O)N[C@@H](CCCN=C(N)N)C(=O)N[C@@H](Cc1ccccc1)C(N)=O)NC(=O)[C@H](Cc1ccccc1)NC(=O)CNC(=O)CN (H-GGF[X8]FRF-NH2) get with Pyroglutamylated RF-amide peptide receptor (Homo sapiens, UniProt Q96P65)?
5.96

Entry source: ChEMBL document CHEMBL2169738
